Measurement notes: Induction of neurite outgrowth in rat hippocampal neurons assessed as neurite total length at 31.25 ng/ml after 48 hrs relative to control
Assay type: functional, Hippocampal neurone
Output Y for records whose Activity is lower than 200%, N for records at or above 200%.

{"Molecule": "C[C@@H]1CN(CCCC[C@H]2CNC(CC3CCCC3)=N2)C(=S)N1CCCC1CCCCC1", "Class": "Y"}
{"Molecule": "CC(C)CCCCN1C(=S)N(CCCC[C@H]2CNC(CC3CCCC3)=N2)C[C@H]1c1ccccc1", "Class": "N"}
{"Molecule": "CC(C)C[C@@H]1CN(CCCC[C@H]2CNC(C3CCCC3)=N2)C(=S)N1CC1CCC(C)CC1 (some centres undefined)", "Class": "N"}
{"Molecule": "CCC(C)CC1=N[C@@H](CCCCN2C[C@@H](C)N(CCC3CCC(C)CC3)C2=S)CN1 (some centres undefined)", "Class": "Y"}
{"Molecule": "CC1CCC(CN2C(=S)N(CCCC[C@H]3CNC(C4CCCC4)=N3)C[C@H]2c2ccccc2)CC1 (some centres undefined)", "Class": "N"}
{"Molecule": "S=C1N(CCCC[C@H]2CNC(C3CCCC3)=N2)C[C@@H](c2ccccc2)N1CCC1CCCCC1", "Class": "N"}
{"Molecule": "CCC(C)CC1=N[C@@H](CCCCN2C[C@@H](C)N(CCCCC(C)C)C2=S)CN1 (some centres undefined)", "Class": "Y"}
{"Molecule": "CCC(C)CC1=N[C@@H](CCCCN2C[C@@H](CC(C)C)N(CCCCC(C)C)C2=S)CN1 (some centres undefined)", "Class": "Y"}

* * *

Measurement notes: Induction of neurite outgrowth in rat hippocampal neurons assessed as neurite total length at 500 ng/ml after 48 hrs relative to control
Assay type: functional, Hippocampal neurone

{"Compound": "S=C1N(CCCC[C@H]2CNC(CCCCc3ccccc3)=N2)C[C@@H](c2ccccc2)N1CCCC1CCCCC1", "Activity (%)": 183.5}
{"Compound": "CC1CCC(CN2C(=S)N(CCCC[C@H]3CNC(C4CCCC4)=N3)C[C@H]2C)CC1 (stereo not given in full)", "Activity (%)": 322.3}
{"Compound": "CC(C)C[C@@H]1CN(CCCC[C@H]2CNC(CCCCc3ccccc3)=N2)C(=S)N1CCCC1CCCCC1", "Activity (%)": 246.8}
{"Compound": "CC(C)C[C@@H]1CN(CCCC[C@H]2CNC(CCCc3ccccc3)=N2)C(=S)N1CC1CCC(C)CC1 (stereo not given in full)", "Activity (%)": 224.4}
{"Compound": "C[C@@H]1CN(CCCC[C@H]2CNC(CC3CCCC3)=N2)C(=S)N1CCCC1CCCCC1", "Activity (%)": 304.4}

* * *

Measurement notes: Induction of neurite outgrowth in rat hippocampal neurons assessed as neurite total length at 62.5 ng/ml after 48 hrs relative to control
Assay type: functional, Hippocampal neurone

{"Compound": "CC(C)CCCCN1C(=S)N(CCCC[C@H]2CNC(CCCCc3ccccc3)=N2)C[C@H]1CC(C)C", "Activity": "194.1%"}
{"Compound": "CCC(C)CC1=N[C@@H](CCCCN2C[C@@H](C)N(CCCCC(C)C)C2=S)CN1 (stereo not given in full)", "Activity": "155%"}
{"Compound": "CC(C)CCCCN1C(=S)N(CCCC[C@H]2CNC(CC3CCCC3)=N2)C[C@H]1C", "Activity": "175.9%"}
{"Compound": "C[C@@H]1CN(CCCC[C@H]2CNC(CCCCc3ccccc3)=N2)C(=S)N1CCCC1CCCCC1", "Activity": "122%"}
{"Compound": "CC(C)C[C@@H]1CN(CCCC[C@H]2CNC(C3CCCC3)=N2)C(=S)N1CCC1CCCCC1", "Activity": "271%"}
